Data origin, for the record: the NIST ThermoML archive (doi:10.1016/j.tca.2012.02.005)

Please provide measured activity coefficient for the entries that follow.
assay: activity coefficient (dimensionless); of the first substance listed, at infinite dilution; xn = mol fraction of the nth substance listed; conditions: 298.15 K; 101 kPa; Liquid; Chromatography; x1 = 0
In your answer, state the number alone without any accompanying words.

In: Query (compound): CO [methanol] + CC(C)(C)N ; field requested: activity coefficient
Out: 0.29

In: What do you get for Cc1ccncc1 [4-methylpyridine] + CO ?
Out: 1

In: Let us now turn to Cc1cccnc1 [3-methylpyridine] + c1ccccc1
Out: 0.96

In: # iterate: CO [methanol] + C1CCNCC1
Out: 0.43

In: Also, CO [methanol] + CCC(C)N please.
Out: 0.38

In: Now this one: CCCCCCN [1-hexanamine] + CO
Out: 13.7

In: And for CCN(CC)CC [triethylamine] + c1ccccc1 ?
Out: 1.28

In: Another compound to look at: CO [methanol] + CCCNCCC
Out: 0.69

In: Could you do the same for CO [methanol] + CCNCC , please?
Out: 0.51

In: Another compound to check: CCCNCCC [dipropylamine] + CO
Out: 0.91

In: How about NC1CCCCC1 [cyclohexylamine] + CO ?
Out: 4.81

In: Also c1ccncc1 [pyridine] + CO , if possible.
Out: 1.2

In: Here is the next compound: CCCN(CCC)CCC [tripropylamine] + CO
Out: 8.79

In: Now consider CCC(C)N (stereo not drawn) [2-butanamine] + c1ccccc1 .
Out: 1.15

In: Next compound up: CO [methanol] + NC1CCCCC1
Out: 0.33

In: And for CCCN(CCC)CCC [tripropylamine] + c1ccccc1 ?
Out: 2.79

In: What do you have for Cc1ccccn1 [2-methylpyridine] + CO ?
Out: 0.75

In: Next entry: NC1CCCCC1 [cyclohexylamine] + c1ccccc1
Out: 6.43

In: Now try Cc1cccc(C)n1 [2,6-dimethylpyridine] + CO .
Out: 0.94

In: Record: CCCNCCC [dipropylamine] + c1ccccc1
Out: 1.48

In: Same again, this time with CCCCCCN [1-hexanamine] + c1ccccc1
Out: 16.2

In: Moving on to Cc1cccnc1 [3-methylpyridine] + CO
Out: 0.82

In: Thanks! And CCCCN [1-butanamine] + CO ?
Out: 0.46

In: Input CO [methanol] + Cc1ccncc1
Out: 0.68

In: What would you report for CCC(C)N (stereo not drawn) [2-butanamine] + CO ?
Out: 0.75

In: Okay, and CO [methanol] + Cc1cccc(C)n1 ?
Out: 0.61

In: Would you kindly repeat that for CO [methanol] + CCCCN ?
Out: 0.35

In: Please do the same for CC(C)(C)N [2-methyl-2-propanamine] + CO as well.
Out: 0.25
